Values were extracted from patent US10022374B2.

System: A-375 cells
measurement.description: Inhibition of cell proliferation (MTS), A-375 cells
Type: cell-based
settings: A-375 cells, 3000 cells/well, 72 h, MTS, absorbance 490 nm; read-out: A375 IC50
test.readout: IC50 (nM)
Numeric only. Scale: nM

Incoming: Which IC50 value is on record for C=CCn1nc(-c2cccc(NS(=O)(=O)C3CC3)c2)c2c(c(Nc3ccc(I)cc3F)c(F)c(=O)n2C)c1=O [Example 34] ?
Outgoing: 4.2

* * *

System: HT-29 cells
measurement.description: Inhibition of cell proliferation (MTS), HT-29 cells
Format: cell-based
settings: Homo sapiens, HT-29, 72 h, HT-29 cells, 5000 cells/well, 72 h, MTS, absorbance 490 nm; read-out: HT29 IC50
Lab note: cut-off is 20 nM. Strictly less in IC50 is satisfied. Exactly 20 nM or more is not satisfied.

Incoming: Consider the molecule CC(C)n1nc(-c2cccc(NS(C)(=O)=O)c2)c2c(c(Nc3ccc(I)cc3F)c(F)c(=O)n2C)c1=O . Is its IC50 strictly less than 20 nM?
Outgoing: not satisfied

Incoming: What about CCCn1nc(-c2cccc(NS(=O)(=O)C3CC3)c2)c2c(c(Nc3ccc(I)cc3F)c(F)c(=O)n2C)c1=O ?
Outgoing: not satisfied

Incoming: Field entry: CCC(=O)Nc1cccc(-c2nn(C(C)C)c(=O)c3c(Nc4ccc(I)cc4F)c(F)c(=O)n(C)c23)c1
Outgoing: not satisfied

Incoming: What do you get for CN(c1cccc(-c2nn(C)c(=O)c3c(Nc4ccc(I)cc4F)c(F)c(=O)n(C)c23)c1)S(=O)(=O)C1CC1 ?
Outgoing: satisfied

Incoming: Field entry: CC(=O)Nc1cccc(-c2nn(C)c(=O)c3c(Nc4ccc(I)cc4F)c(F)c(=O)n(C)c23)c1
Outgoing: satisfied

Incoming: Same thing, different molecule: CCS(=O)(=O)Nc1cccc(-c2nn(C3CC3)c(=O)c3c(Nc4ccc(I)cc4F)c(F)c(=O)n(C)c23)c1
Outgoing: satisfied

Incoming: # iterate: C=CCn1nc(-c2cccc(NC(=O)C3CC3)c2)c2c(c(Nc3ccc(I)cc3F)c(F)c(=O)n2C)c1=O
Outgoing: not satisfied

* * *

For each entry below, report its pIC50 value.
System: HT-29 cells
measurement.description: Inhibition of cell proliferation (MTS), HT-29 cells
Assay type: cell-based
settings: Homo sapiens, HT-29, 72 h, HT-29 cells, 5000 cells/well, 72 h, MTS, absorbance 490 nm; read-out: HT29 IC50
Schema: pIC50 number; meaning minus log10 of the concentration expressed in molar units.

Incoming: Give the measured pIC50 of Cn1c(=O)c(F)c(Nc2ccc(I)cc2F)c2c(=O)n(C3CC3)nc(-c3cccc(N4CCCC4=O)c3)c21 [Example 53] .
Outgoing: 7.72

Incoming: Now give it for COCCn1nc(-c2cccc(NS(=O)(=O)C3CC3)c2)c2c(c(Nc3ccc(I)cc3F)c(F)c(=O)n2C)c1=O [Example 18] too.
Outgoing: 7.63

Incoming: Follow-up entry: C=CCn1nc(-c2cccc(NS(=O)(=O)C(C)C)c2)c2c(c(Nc3ccc(I)cc3F)c(F)c(=O)n2C)c1=O [Example 33]
Outgoing: 8.14
